Reference source for all entries: patent EP4653435A1

experimental_details: Mouse pharmacokinetics testing
Assay type: in vivo, CD1 female mice
condition_description: mouse; PO (10 mg/kg), CD1 female mice, plasma; read-out: AUC0-24
value_kind: AUC(0-t) (ng·h/mL)
Give the value in ng·h/mL but do not write ng·h/mL after it.

Prompt: Read the entry C[C@H]1CC[C@H](c2ccc3scnc3c2)N(C(=O)C(=O)Nc2cnc(N)c3c2cnn3C)C1 and write its reported AUC(0-t).
Response: 586

----------
experimental_details: Mouse pharmacokinetics testing
Format: in vivo, CD1 female mice
condition_description: mouse; IV (2 mg/kg), CD1 female mice, plasma; read-out: Cl
value_kind: clearance (mL/min/kg)
Give the value in mL/min/kg but do not write mL/min/kg after it.

Prompt: Read the entry C[C@H]1CC[C@H](c2ccc3scnc3c2)N(C(=O)C(=O)Nc2cnc(N)c3c2cnn3C)C1 and write its reported clearance.
Response: 86.6

----------
experimental_details: Liver microsomal stability assay, human
condition_description: liver microsomes
value_kind: CLint scaled at 1 µM (mL/min/kg)
Give the value in mL/min/kg but do not write mL/min/kg after it.

>>> print(df.to_string())
                                   compound  data_value
0  CN(C(=O)C(=O)Nc1cnc(N)c2c1cnn2C)[C@@H]1COc2cc(SC(F)(F)F)ccc21 [Compound P29a]        49.7
1  CN(C(=O)C(=O)Nc1cnc(N)c2c1cnn2C)[C@@H]1COCc2nc(C(F)(F)F)ccc21 [Compound P9a]         2.1
2  CN(C(=O)C(=O)Nc1cnc(N)c2c1cnn2C)C1COc2cc(C(F)(F)F)ccc21 (stereo not shown) [Compound P2]          13
3  [2H]C([2H])([2H])N(C(=O)C(=O)Nc1cnc(N)c2c1cnn2C)[C@@H]1COc2cc(SC(F)(F)F)ccc21 [Compound P32]          32
4  CN(C(=O)C(=O)Nc1cnc(N)c2c1cnn2C)[C@@H]1COCc2nc(-c3cncc(Cl)c3)ccc21 [Compound H2b]        21.3
5  CN(C(=O)C(=O)Nc1cnc(N)c2c1cnn2C)C1COCc2nc(C(F)(F)F)ccc21 (stereo not shown) [Compound P9]           5

Next up:
Prompt: Read the entry CCN(C(=O)C(=O)Nc1cnc(N)c2c1cnn2C)[C@@H]1COCc2nc(C(F)(F)F)ccc21 [Compound P28] and write its reported CLint scaled at 1 µM.
Response: 4.8

----------
experimental_details: Mouse pharmacokinetics testing
Format: in vivo, CD1 female mice
condition_description: mouse; IV (2 mg/kg), CD1 female mice, plasma; read-out: T1/2 (converted)
value_kind: half-life (min)
Give the value in min but do not write min after it.

Prompt: Read the entry C[C@H]1CC[C@H](c2ccc3scnc3c2)N(C(=O)C(=O)Nc2cnc(N)c3c2cnn3C)C1 [Compound P3b] and write its reported half-life.
Response: 19.2

----------
experimental_details: in vitro
condition_description: dog, MDCK-MDR1, pH 7.4
Param label: returns Y when Papp A→B < 10 ×10⁻⁶ cm/s, returns N otherwise, including exact equality.

>>> print(df.to_string())
                                   compound  class_name
0  [2H]C([2H])([2H])N(C(=O)C(=O)Nc1cnc(N)c2c1cnn2C)[C@@H]1COc2cc(SC(F)(F)F)ccc21           N
1  [2H]C([2H])([2H])N(C(=O)C(=O)Nc1cnc(N)c2c1cnn2C)[C@@H]1COc2cc(C(F)(F)F)ccc21           N

Below: the item to evaluate.
Prompt: # TODO verify Papp A→B < 10 ×10⁻⁶ cm/s strictly for this compound: CN(C(=O)C(=O)Nc1cnc(N)c2c1cnn2C)C1COc2cc(S(=O)(=O)C(F)(F)F)ccc21 (stereo not drawn)
Response: Y

----------
CLint scaled at 1 µM reference
experimental_details: Liver microsomal stability assay, human
condition_description: liver microsomes
Give the value in mL/min/kg but do not write mL/min/kg after it.

Please review the entries below; each comes with its answer.
>>> print(df.to_string())
                                   molecule            value_kind  data_value
0  CN(C(=O)C(=O)Nc1cnc(N)c2c1cnn2C)[C@@H]1COc2cc(C(F)(F)F)ccc21  CLint scaled at 1 µM         7.4
1  [2H]C([2H])([2H])N(C(=O)C(=O)Nc1cnc(N)c2c1cnn2C)[C@@H]1COc2cc(C(F)(F)F)ccc21  CLint scaled at 1 µM         7.8
2  Cn1ncc2c(NC(=O)C(=O)N(CC(F)(F)F)[C@@H]3COc4cc(C(F)(F)F)ccc43)cnc(N)c21 [Compound P20a]  CLint scaled at 1 µM        19.2

Next up:
Prompt: Read the entry CN(C(=O)C(=O)Nc1cnc(N)c2c1cnn2C)C1COc2cc(OC(F)(F)F)ccc21 (stereo not shown) and write its reported CLint scaled at 1 µM.
Response: 9.4

----------
CLint scaled at 1 h, 1 µM reference
experimental_details: Liver microsomal stability assay, human
condition_description: microsomes
Express your answer as a number followed by its unit.

Please review the entries below; each comes with its answer.
In [3]: df
Out[3]:
                                   compound      data_value
0  C[C@H]1COC[C@@H](c2ccc(C(F)(F)F)cn2)N1C(=O)C(=O)Nc1cnc(N)c2c1cnn2C (racemic)  16.5 mL/min/kg
1  CCN(C(=O)C(=O)Nc1cnc(N)c2c1cnn2C)[C@@H]1COc2cc(C(F)(F)F)ccc21 [Compound P19a]    20 mL/min/kg
2  C[C@H](c1ncccn1)N(Cc1ccc(C(F)(F)F)cn1)C(=O)C(=O)Nc1cnc(N)c2c1cnn2C [Compound P1]    18 mL/min/kg

Next up:
Prompt: Read the entry C[C@H]1CC[C@H](c2ccc3sc(CCN(C)C)nc3c2)N(C(=O)C(=O)Nc2cnc(N)c3c2cnn3C)C1 (racemic) and write its reported CLint scaled at 1 h, 1 µM.
Response: 9.7 mL/min/kg

----------
System: HCT116-MTAPdel
experimental_details: 2D antiproliferative assay (CTG cell viability), MTAP-deficient cells
Type: cell-based
condition_description: Homo sapiens, HCT-116; HCT116 MTAP-deficient cells, 7-10 days, CTG; read-out: HCT116-MTAPdel/IC50/nM
Param label: returns 1 (yes) when IC50 < 7 nM, returns 0 (no) otherwise, including exact equality.

Past entries and their recorded results:
In [3]: df
Out[3]:
                                   compound  class_name
0  CN(C(=O)C(=O)Nc1cnc(N)c2c1cnn2C)[C@H]1COc2cc(-c3cncc(Cl)c3)ccc21 [Compound H1b]      0 (no)
1  C[C@H]1CC[C@H](c2ccc3sc(C(F)(F)F)nc3c2)N(C(=O)C(=O)Nc2cnc(N)c3c2cnn3C)C1 (racemic) [Compound P16]      0 (no)
2  CN(C(=O)C(=O)Nc1cnc(N)c2c1cnn2C)[C@@H]1COCc2nc(-c3cncc(Cl)c3)ccc21 [Compound H2b]     1 (yes)
3  CN(C(=O)C(=O)Nc1cnc(N)c2c1cnn2C)[C@H]1COCc2nc(C(F)(F)F)ccc21 [Compound P9b]      0 (no)

Prompt: # TODO verify IC50 < 7 nM strictly for this compound: C[C@H](c1ncccn1)N(Cc1ccc(C(F)(F)F)cn1)C(=O)C(=O)Nc1cnc(N)c2c1cnn2C1CC1 [Compound P7]
Response: 0 (no)

Prompt: # TODO verify IC50 < 7 nM strictly for this compound: Cn1ncc2c(NC(=O)C(=O)NC3COc4cc(C(F)(F)F)ccc43)cnc(N)c21 (stereo not drawn) [Compound A1, reference compound]
Response: 0 (no)

Prompt: # TODO verify IC50 < 7 nM strictly for this compound: CCn1ncc2c(NC(=O)C(=O)N(Cc3ccc(C(F)(F)F)cn3)[C@H](C)c3ncccn3)cnc(N)c21 [Compound P6]
Response: 0 (no)

Prompt: # TODO verify IC50 < 7 nM strictly for this compound: CN(C(=O)C(=O)Nc1cnc(N)c2c1cnn2C)[C@@H]1COc2cc(SC(F)(F)F)ccc21 [Compound P29a]
Response: 0 (no)

Prompt: # TODO verify IC50 < 7 nM strictly for this compound: C[C@H]1CC[C@H](c2ccc3scnc3c2)N(C(=O)C(=O)Nc2cnc(N)c3c2cnn3C)C1 [Compound P3b]
Response: 1 (yes)

Prompt: # TODO verify IC50 < 7 nM strictly for this compound: Cn1ncc2c(NC(=O)C(=O)N(C3CC3)[C@@H]3COc4cc(C(F)(F)F)ccc43)cnc(N)c21 [Compound P21b]
Response: 1 (yes)

Prompt: # TODO verify IC50 < 7 nM strictly for this compound: CCN(C(=O)C(=O)Nc1cnc(N)c2c1cnn2C)[C@H]1COCc2nc(C(F)(F)F)ccc21 [Compound P28a]
Response: 0 (no)

Prompt: # TODO verify IC50 < 7 nM strictly for this compound: Cc1cc(NC(=O)C(=O)N2C[C@@H](C)CC[C@@H]2c2ccc3scnc3c2)cnc1N [TNG908, reference compound]
Response: 0 (no)

Prompt: # TODO verify IC50 < 7 nM strictly for this compound: CN(C(=O)C(=O)Nc1cnc(N)c2c1cnn2C)C1COc2cc(OC(F)(F)F)ccc21 (stereo not drawn) [Compound P30]
Response: 0 (no)

Prompt: # TODO verify IC50 < 7 nM strictly for this compound: CC1CCC(c2ccc3sc(C4CCN(C)CC4)nc3c2)N(C(=O)C(=O)Nc2cnc(N)c3c2cnn3C)C1 (racemic) [Compound P5]
Response: 1 (yes)
